- TARGET_DESC: purified ovine COX-1 (Ovis aries, UniProt P05979)
- Construct: purchased Cayman Chemical Company
- Sequence (P05979 25-600): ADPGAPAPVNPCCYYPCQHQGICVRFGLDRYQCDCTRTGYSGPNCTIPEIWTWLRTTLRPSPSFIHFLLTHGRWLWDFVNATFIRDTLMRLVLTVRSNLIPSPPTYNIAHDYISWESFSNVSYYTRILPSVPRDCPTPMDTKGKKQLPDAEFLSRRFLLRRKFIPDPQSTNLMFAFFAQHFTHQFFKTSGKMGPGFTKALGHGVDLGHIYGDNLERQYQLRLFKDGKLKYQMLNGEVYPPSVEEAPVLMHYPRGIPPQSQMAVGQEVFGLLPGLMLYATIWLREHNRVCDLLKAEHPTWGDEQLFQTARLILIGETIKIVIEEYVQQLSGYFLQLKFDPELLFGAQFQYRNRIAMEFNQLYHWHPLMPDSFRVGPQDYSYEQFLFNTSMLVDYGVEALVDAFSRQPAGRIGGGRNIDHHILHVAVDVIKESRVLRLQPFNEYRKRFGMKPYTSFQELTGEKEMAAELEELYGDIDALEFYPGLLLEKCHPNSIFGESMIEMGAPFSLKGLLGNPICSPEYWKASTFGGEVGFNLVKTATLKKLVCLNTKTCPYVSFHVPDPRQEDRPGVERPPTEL
- MEASUREMENT_PROTOCOL: COX-1 colorimetric activity assay (Cayman kit)
- Format: biochemical
- CONDITION_LABEL: purified enzyme
- Protocol: COX-1 and COX-2 activities were measured using purified ovine COX-1 and COX-2 with colorimetric assay kits obtained from Cayman Chemical Company (Ann Arbor, MI, USA) according to the manufacturer’s protocol. After the addition of arachidonic acid and incubation at 25 °C for 5 min, COX activity was determined by measuring absorbance at 590 nm.
pIC50: −log10 of the molar value.
TEST_READOUT: pIC50

>>> print(df.to_string())
                                   compound                               target_desc  test_readout  measured_number
0  CSc1ccc(/C=C2/C(C)=C(CC(=O)NCCN(C)C)c3cc(F)ccc32)cc1 [SSA, sulindac sulfide amide]  purified ovine COX-1 (Ovis aries, UniProt P05979)         pIC50             4.09

---

- Test system: Hs578t
- MEASUREMENT_PROTOCOL: Growth inhibition, Cell Titer Glo
- Assay type: cell-based
- CONDITION_LABEL: Homo sapiens, Hs-578T, 72 h, 2D
TEST_READOUT: IC50 (µM)

>>> df
                                   molecule  target_desc  test_readout  measured_number
0  CSc1ccc(/C=C2/C(C)=C(CC(=O)NCCN(C)C)c3cc(F)ccc32)cc1 [SSA, sulindac sulfide amide]       Hs578t          IC50                7

---

Target sequence: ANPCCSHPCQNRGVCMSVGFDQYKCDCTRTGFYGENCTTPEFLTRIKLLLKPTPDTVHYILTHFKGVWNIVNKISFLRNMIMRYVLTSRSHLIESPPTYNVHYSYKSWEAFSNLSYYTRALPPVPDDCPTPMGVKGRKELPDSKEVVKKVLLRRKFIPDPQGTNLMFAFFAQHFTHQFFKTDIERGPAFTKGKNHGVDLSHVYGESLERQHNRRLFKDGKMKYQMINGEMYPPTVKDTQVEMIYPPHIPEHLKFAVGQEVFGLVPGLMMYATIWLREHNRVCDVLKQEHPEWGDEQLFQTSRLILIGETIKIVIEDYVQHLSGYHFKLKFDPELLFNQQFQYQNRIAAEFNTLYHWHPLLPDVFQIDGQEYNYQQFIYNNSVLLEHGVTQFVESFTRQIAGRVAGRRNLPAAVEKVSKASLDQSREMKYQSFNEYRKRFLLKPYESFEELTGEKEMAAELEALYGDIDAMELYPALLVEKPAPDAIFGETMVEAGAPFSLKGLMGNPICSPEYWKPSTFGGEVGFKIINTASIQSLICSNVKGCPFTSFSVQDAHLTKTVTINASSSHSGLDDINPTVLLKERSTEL
TEST_READOUT: IC50

                                   compound  test_readout    result
0  CSc1ccc(/C=C2/C(C)=C(CC(=O)NCCN(C)C)c3cc(F)ccc32)cc1 [SSA, sulindac sulfide amide]          IC50  > 200 µM
